Reference for the values: ChEMBL document CHEMBL3433997

# Assayed target: Glucose transporter (Leishmania mexicana)
# Experiment description: ST_JUDE_LEISH: Cytotoxicity at 2uM final concentration against transgenic Leishmania Mexicana promastigotes LmGT2 that are glucose transport deficient and complemented with the L. Mexicana glucose transporter 2. Activity is measured by DNA content using SYBR green in vitro
# Type: functional
Observation type: inhibition (%)
State just the number; it will be interpreted in %.

These solved cases illustrate the format of a correct answer.
>  <Compound>
COc1cccc(CCc2nc3c(N4CCC(Cc5ccccc5)CC4)cccc3n2CC2CNCCO2)c1 (stereo not given)

>  <inhibition [%]>
8.5

$$$$
>  <Compound>
CS(=O)(=O)c1ccc(CNCc2ccc(-c3cccc(-c4nc5cc(C(F)(F)F)ccc5[nH]4)c3)cc2)cc1

>  <inhibition [%]>
1.5

$$$$
>  <Compound>
COc1ccc2c(N/N=C/c3cccc([N+](=O)[O-])c3)cc(C)nc2c1

>  <inhibition [%]>
0.63

$$$$
>  <Compound>
N=C(N)Nc1nc(-c2cccc(NC(=O)CCCCCCCON3C(N)=NC(N)=NC34CCCCC4)c2)cs1

>  <inhibition [%]>
3.75

$$$$
>  <Compound>
COc1cccc(C2CCCN(CCCCNC(=O)c3ccc(NC(=O)c4ccc(Cl)cc4)cc3)C2)c1 (stereo not given)

>  <inhibition [%]>
3.02

$$$$
>  <Compound>
O=C(Nc1cccc(F)c1)N(Cc1ccc(-c2cccc(CN3CCNCC3)c2)cc1)C1CCN(Cc2ccccc2)CC1

>  <inhibition [%]>
6.85

$$$$

Tell me its inhibition given `FC(F)(F)c1cccc(Nc2nc(-c3ccccc3)nc3ncccc23)c1` as the entry.
3.04

Tell me its inhibition given Nc1ccc2[nH]cc(C3CCN(CC4CCC(NC(=O)/C=C/c5ccc(Cl)c(Cl)c5)CC4)CC3)c2n1 (stereo not given) as the entry.
-4.12

Tell me its inhibition given `CNCCNc1nccc(N2CCc3ncnc(Nc4ccc(OCc5cccc(F)c5)c(Cl)c4)c3C2)n1` as the entry.
2.3

Tell me its inhibition given COc1cc(Cc2cnc(N)nc2N)cc(OCCCCC2SC(=O)NC2=O)c1OC (stereo not given) as the entry.
1.34

###

# Assayed target: Solute carrier family 2, facilitated glucose transporter member 1 (Homo sapiens)
# Experiment description: ST_JUDE_LEISH: Cytotoxicity at 2uM final concentration against transgenic Leishmania Mexicana promastigotes LmGLUT1 that are glucose transport deficient and complemented with the human glucose transporter GLUT1. Activity is measured by DNA content using SYBR green in vitro
# Type: functional
Observation type: inhibition (%)
State just the number; it will be interpreted in %.

These solved cases illustrate the format of a correct answer.
>  <Compound>
COc1ccc(C)cc1NC(=O)CSc1nc2cccnc2n1C1CCCCC1

>  <Recorded number>
5.9

$$$$
>  <Compound>
CCOc1cc(C(=O)NC2CCN(Cc3ccccc3)CC2)ccc1-c1nc2cc(Cl)c(F)cc2[nH]1

>  <Recorded number>
3.61

$$$$

Tell me its inhibition given `Cc1ccc(NC(=O)Nc2ccc(Cn3ncc(N4CCCNCC4)c(Cl)c3=O)cc2)cc1` as the entry.
2.01

###

# Assayed target: Solute carrier family 2, facilitated glucose transporter member 1 (Homo sapiens) (UniProt P11166)
# Sequence (P11166 whole entry): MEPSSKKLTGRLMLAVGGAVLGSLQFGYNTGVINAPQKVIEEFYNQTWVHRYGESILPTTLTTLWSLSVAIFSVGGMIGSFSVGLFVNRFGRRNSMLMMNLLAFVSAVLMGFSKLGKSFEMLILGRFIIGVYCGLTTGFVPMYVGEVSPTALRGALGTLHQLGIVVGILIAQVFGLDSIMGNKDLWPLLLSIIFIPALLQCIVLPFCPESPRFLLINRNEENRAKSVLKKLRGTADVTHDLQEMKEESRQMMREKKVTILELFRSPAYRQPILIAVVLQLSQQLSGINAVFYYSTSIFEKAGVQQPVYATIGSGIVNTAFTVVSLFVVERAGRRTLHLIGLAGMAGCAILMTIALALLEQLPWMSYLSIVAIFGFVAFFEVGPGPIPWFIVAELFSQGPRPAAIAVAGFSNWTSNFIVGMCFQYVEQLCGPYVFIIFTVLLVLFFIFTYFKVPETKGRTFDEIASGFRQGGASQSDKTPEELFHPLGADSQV
# Experiment description: ST_JUDE_LEISH: Cytotoxicity at 2uM final concentration against transgenic Leishmania Mexicana promastigotes LmGLUT1 that are glucose transport deficient and complemented with the human glucose transporter GLUT1. Activity is measured by DNA content using SYBR green in vitro
# Assay type: functional
# inhibition annotations
State just the number; it will be interpreted in %.

These solved cases illustrate the format of a correct answer.
>  <Compound>
Cc1[nH]c(C)c(-c2ccc(OCc3ccccc3C(F)(F)F)nc2)c(=O)c1Br

>  <Unit annotation>
%

>  <inhibition>
4.88

$$$$
>  <Compound>
COc1ccc2nccc(NC(=O)N3CCC(NCc4cc5c(F)ccc(F)c5[nH]4)CC3)c2n1

>  <Unit annotation>
%

>  <inhibition>
16.9

$$$$
>  <Compound>
Cc1cccc(CNc2nc(C)cc(N[C@@H](Cc3ccccc3)C(=O)NCc3cccc(F)c3)n2)c1

>  <Unit annotation>
%

>  <inhibition>
6.42

$$$$

Tell me its inhibition given `Cc1cc(C)c(C)c(OCCCON2C(=N)N=C(N)NC2(C)C)c1C` as the entry.
1.55

###

# Assayed target: Glucose transporter (Leishmania mexicana) (UniProt O61059)
# Experiment description: ST_JUDE_LEISH: Cytotoxicity at 2uM final concentration against transgenic Leishmania Mexicana promastigotes LmGT2 that are glucose transport deficient and complemented with the L. Mexicana glucose transporter 2. Activity is measured by DNA content using SYBR green in vitro
# Assay type: functional
# inhibition annotations
State just the number; it will be interpreted in %.

These solved cases illustrate the format of a correct answer.
>  <Molecule>
COc1ccc2ccccc2c1CNCC1CCN(CC2CCCCC2)CC1

>  <Unit annotation>
%

>  <Recorded number>
-1.88

$$$$
>  <Molecule>
OCc1ccc(-c2cncc(Nc3ccc(F)c(Cl)c3)c2)cc1

>  <Unit annotation>
%

>  <Recorded number>
1.04

$$$$

Tell me its inhibition given CCNc1cc(C(=O)NC(Cc2ccccc2)C(O)CNC(C)(C)CCCC(C)C)c(F)c(N2CCCS2(=O)=O)c1 (stereo unspecified) as the entry.
1.59

Tell me its inhibition given `COCCNCc1ncsc1-c1ccc2c(Nc3cc(O)c(Cl)cc3F)ccnc2c1` as the entry.
1.41

Tell me its inhibition given `CCn1c(Sc2ccc(C#N)c([N+](=O)[O-])c2)nnc1-c1cccc(Cl)c1` as the entry.
11.8

Tell me its inhibition given `N#Cc1cccc(NC(=O)Nc2cccc(-c3ccc(-c4nc5cc(C(F)(F)F)ccc5[nH]4)cc3)c2)c1` as the entry.
-7.53

###

# Assayed target: Glucose transporter (Leishmania mexicana) (UniProt O61059)
# Experiment description: ST_JUDE_LEISH: Cytotoxicity at 2uM final concentration against transgenic Leishmania Mexicana promastigotes LmGT2 that are glucose transport deficient and complemented with the L. Mexicana glucose transporter 2. Activity is measured by DNA content using SYBR green in vitro
# Assay type: functional
Observation type: inhibition (%)
State just the number; it will be interpreted in %.

>  <Compound>
CCC(CC)NCc1c(O)ccc2c(CNC(CC)CC)c(O)ccc12

>  <Unit annotation>
%

>  <inhibition>
-1.57

$$$$
>  <Compound>
CC(C)(C)CCN1CCC(CNC(=O)c2cc(-c3cccc(Cl)c3)cs2)C1 (stereo not given)

>  <Unit annotation>
%

>  <inhibition>
-1.21

$$$$
>  <Compound>
c1cc(CNCCN2CCNCC2)cc(-c2cccc(-c3nc4ccccc4[nH]3)c2)c1

>  <Unit annotation>
%

>  <inhibition>
0.14

$$$$
>  <Compound>
O=C(CCc1c[nH]cn1)Nc1cccc(-c2ccc(-c3nc4cc(F)ccc4[nH]3)cc2)c1

>  <Unit annotation>
%

>  <inhibition>
16.6

$$$$
>  <Compound>
COc1cc2c(cc1OC)CN(CCCCc1ccc(NC(=O)c3cc(Cl)cc(Cl)c3)cc1)CC2

>  <Unit annotation>
%

>  <inhibition>
-0.56

$$$$

Tell me its inhibition given `S=C(NCCCCCN1CCC(c2c[nH]c3ccccc23)CC1)Nc1cc(Cl)cc(Cl)c1` as the entry.
0.49

Tell me its inhibition given `CN1CCN(CCCCCCNc2c3ccccc3nc3ccccc23)CC1` as the entry.
10.9

Tell me its inhibition given `COc1ccc2nccc([C@@H](O)CN3CCC(NCc4[nH]c5ccccc5c4F)CC3)c2c1` as the entry.
1.18

Tell me its inhibition given `CCN(CC)CCCN1CCN(C(=O)c2cccc(-c3noc(C(F)(F)F)n3)c2)CC1` as the entry.
4

Tell me its inhibition given `CC1(C)N=C(N)N=C(N)N1c1ccc(Cl)c(Cl)c1` as the entry.
3.04

Tell me its inhibition given `NC1CCN(CCc2ccc(NS(=O)(=O)c3ccc(-c4ccccc4)cc3)cc2)CC1` as the entry.
0.08

Tell me its inhibition given `Cc1ccc(CN2CCN(Cc3cccc(NC(=O)c4cccs4)c3)CC2)cc1C` as the entry.
1.91

Tell me its inhibition given CC(C)CC1c2[nH]c3ccccc3c(=O)c2CN1C(=O)OC(C)(C)C (stereo not given) as the entry.
1.8

Tell me its inhibition given `COc1c(C2CCN(CCCCNC(=O)c3ccc(-c4ccc(Cl)cc4)c(OCC(N)=O)c3)CC2)ccc2c1CCCC2` as the entry.
5.11

Tell me its inhibition given `COc1c(C2CCN(CCCCNC(=O)c3ccc(-c4ccc(Cl)cc4)c(OCCN(C)C)c3)CC2)ccc2c1CCCC2` as the entry.
18.8

###

# Assayed target: Solute carrier family 2, facilitated glucose transporter member 1 (Homo sapiens)
# Experiment description: ST_JUDE_LEISH: Cytotoxicity at 2uM final concentration against transgenic Leishmania Mexicana promastigotes LmGLUT1 that are glucose transport deficient and complemented with the human glucose transporter GLUT1. Activity is measured by DNA content using SYBR green in vitro
# Type: functional
# inhibition annotations
State just the number; it will be interpreted in %.

>  <Compound>
Nc1nccc2ccc(-c3cccnc3)cc12

>  <Assayed target>
Solute carrier family 2, facilitated glucose transporter member 1 (Homo sapiens)

>  <inhibition / %>
3.94

$$$$

Tell me its inhibition given `Cc1cc2c(cc1C(F)(F)F)N(C(=O)Nc1ccc(C(=O)NCCN3CCCC3)cc1)CC2` as the entry.
1.29

Tell me its inhibition given `Cc1[nH]c(C)c(-c2ccc(OCc3ccc(F)cc3)cc2)c(=O)c1Br` as the entry.
0.17

Tell me its inhibition given `Cc1ccc(S(=O)(=O)n2cc(-c3ccnc(N)c3)c3cc(Br)cnc32)cc1` as the entry.
4.4
